This collection of values is drawn from patent US20220204502A1.

test: Hygroscopicity (Dynamic Vapor Sorption, DVS) measurement; assay type: physicochemical; conditions: relative humidity 80.0 %, 25° C.
Attribute Measured: water (moisture) content by DVS (%)
Give bare numbers, in %.

Lookup: Recall and state the measured water (moisture) content by DVS for C[C@H](Nc1ncnc2[nH]ccc(=O)c12)c1c(Cl)c2cccc(Cl)c2c(=O)n1-c1ccccc1 [Crystal form I] .
Found: 0.38

----------
test: Hygroscopicity (Dynamic Vapor Sorption, DVS) measurement; assay type: physicochemical; details: relative humidity 70.0 %, 25° C.
Attribute Measured: water (moisture) content by DVS (%)
Answers are plain numbers, in %.

Lookup: Fill in reported water (moisture) content by DVS for this entry: C[C@H](Nc1ncnc2[nH]ccc(=O)c12)c1c(Cl)c2cccc(Cl)c2c(=O)n1-c1ccccc1 [Crystal form I]
Found: 0.33
